Where these numbers come from: paper PMC6009888

Please go through the items and note down their Neurotoxicity (animals that exhibit toxicity / animals tested).
Tested on: mice
Assay: Neurotoxicity screening (rotarod test)
Format: in vivo
Details: 30 mg/kg i.p., 0.5 h

Example entries begin here.
[[record]]
compound = "O=C(NN=C1C(=O)Nc2ccc(Br)cc21)Nc1ncc([N+](=O)[O-])s1"
target_under_test = "mice"
measured_value = "1/4"

[[record]]
compound = "O=C(NN=C(c1ccccc1)c1ccccc1)Nc1ncc([N+](=O)[O-])s1"
target_under_test = "mice"
measured_value = "0/4"

[[record]]
compound = "CC(=NNC(=O)Nc1ncc([N+](=O)[O-])s1)c1ccc(Br)cc1"
target_under_test = "mice"
measured_value = "0/4"

[[record]]
compound = "O=C1NC(=O)C(c2ccccc2)(c2ccccc2)N1 [Phenytoin, reference compound]"
target_under_test = "mice"
measured_value = "0/4"

[[record]]
compound = "O=C(NN=Cc1cccc(Cl)c1Cl)Nc1ncc([N+](=O)[O-])s1"
target_under_test = "mice"
measured_value = "0/4"

[[record]]
compound = "CC(=NNC(=O)Nc1ncc([N+](=O)[O-])s1)c1ccc(Cl)cc1"
target_under_test = "mice"
measured_value = "0/4"

[[record]]
compound = "O=C(NN=C1C(=O)Nc2ccccc21)Nc1ncc([N+](=O)[O-])s1"
target_under_test = "mice"
measured_value = "0/4"

[[record]]
compound = "O=C(NN=C(CBr)c1ccc(Br)cc1)Nc1ncc([N+](=O)[O-])s1"
target_under_test = "mice"
measured_value = "2/4"


Next compound, Neurotoxicity (animals that exhibit toxicity / animals tested) to be filled in.
// returns reported Neurotoxicity (animals that exhibit toxicity / animals tested) for input `CC(=NNC(=O)Nc1ncc([N+](=O)[O-])s1)c1ccc(O)cc1`
0/4

---

Record form. Attribute: IC50. Fill in for each entry.
Target: equine serum BuChE (Equus caballus)
Construct: equine serum BuChE was used as enzyme; purchased Sigma-Aldrich; host or cells: equine serum
Sequence (P81908 whole entry): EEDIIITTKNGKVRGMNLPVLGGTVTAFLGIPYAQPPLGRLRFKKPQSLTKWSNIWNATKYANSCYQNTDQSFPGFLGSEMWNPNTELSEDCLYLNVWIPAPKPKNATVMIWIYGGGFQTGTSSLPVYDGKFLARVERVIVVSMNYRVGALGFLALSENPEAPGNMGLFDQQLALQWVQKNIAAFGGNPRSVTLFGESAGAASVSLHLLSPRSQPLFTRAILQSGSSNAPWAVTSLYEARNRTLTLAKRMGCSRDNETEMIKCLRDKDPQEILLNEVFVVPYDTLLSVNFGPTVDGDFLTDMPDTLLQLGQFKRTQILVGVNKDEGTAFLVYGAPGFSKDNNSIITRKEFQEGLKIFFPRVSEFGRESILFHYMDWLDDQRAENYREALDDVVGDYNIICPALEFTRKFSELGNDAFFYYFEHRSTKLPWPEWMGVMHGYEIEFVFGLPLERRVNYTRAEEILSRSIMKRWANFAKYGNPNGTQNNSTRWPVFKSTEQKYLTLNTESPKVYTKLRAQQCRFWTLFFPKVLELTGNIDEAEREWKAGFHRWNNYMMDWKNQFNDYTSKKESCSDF
Assay: In vitro BuChE inhibition assay (Ellman's method, equine serum BuChE)
Format: biochemical
Conditions: equine serum BuChE, BuTI substrate, mean ± SEM; read-out: BuChE In vitro IC50 (µM) ± SEM
Answers are plain numbers, in µM.

Please report IC50 for every entry that follows.
1. CC(=NNC(=O)Nc1ncc([N+](=O)[O-])s1)c1ccc(Cl)cc1
2. O=C(NN=C(c1ccccc1)c1ccccc1)Nc1ncc([N+](=O)[O-])s1
3. CC(=NNC(=O)Nc1ncc([N+](=O)[O-])s1)c1ccc(Br)cc1
4. O=C(NN=C1C(=O)Nc2ccc(Br)cc21)Nc1ncc([N+](=O)[O-])s1
5. O=C(NN=C(c1ccccc1)c1ccc(Cl)cc1)Nc1ncc([N+](=O)[O-])s1

0.553
1.76
0.499
5.37
0.024

---

Target: MAO-B (Rattus norvegicus)
Construct: employing crude rat brain mitochondrial suspension; from tissue; host or cells: brain mitochondria of adult Wistar rats
Sequence (P19643 whole entry): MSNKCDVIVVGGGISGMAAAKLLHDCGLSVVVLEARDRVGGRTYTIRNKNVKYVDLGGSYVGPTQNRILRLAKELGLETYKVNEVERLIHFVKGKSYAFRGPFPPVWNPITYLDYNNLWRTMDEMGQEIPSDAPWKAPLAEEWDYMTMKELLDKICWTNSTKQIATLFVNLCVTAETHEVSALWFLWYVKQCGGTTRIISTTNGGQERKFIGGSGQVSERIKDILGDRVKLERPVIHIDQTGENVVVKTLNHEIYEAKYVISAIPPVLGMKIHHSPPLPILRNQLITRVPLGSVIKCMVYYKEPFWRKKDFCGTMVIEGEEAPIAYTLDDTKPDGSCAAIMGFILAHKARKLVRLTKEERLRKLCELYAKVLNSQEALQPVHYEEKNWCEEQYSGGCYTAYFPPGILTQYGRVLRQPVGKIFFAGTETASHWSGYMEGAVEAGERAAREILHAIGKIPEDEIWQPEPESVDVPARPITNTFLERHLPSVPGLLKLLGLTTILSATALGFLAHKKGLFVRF
Assay: biochemical
Conditions: ratio of experimental IC50(MAO-A)/IC50(MAO-B)
Could you please report measured SI (selectivity index for MAO-B) for the items listed next?
Numbers only.

Field: example entries. Status: answers known.
[[record]]
compound = "O=C(NN=C(c1ccccc1)c1ccc(O)cc1)Nc1ncc([N+](=O)[O-])s1 [Compound 18]"
measured_value = 217.26

[[record]]
compound = "O=C(NN=Cc1ccc(Cl)cc1Cl)Nc1ncc([N+](=O)[O-])s1 [Compound 13]"
measured_value = 3001.15

[[record]]
compound = "O=C(NN=C(c1ccccc1)c1ccccc1)Nc1ncc([N+](=O)[O-])s1 [Compound 16]"
measured_value = 3.15

[[record]]
compound = "O=C(NN=Cc1ccc(Br)cc1)Nc1ncc([N+](=O)[O-])s1 [Compound 10]"
measured_value = 945.33

[[record]]
compound = "CC(=NNC(=O)Nc1ncc([N+](=O)[O-])s1)c1ccc([N+](=O)[O-])cc1 [Compound 8]"
measured_value = 114.86

[[record]]
compound = "O=C(NN=C1C(=O)Nc2ccccc21)Nc1ncc([N+](=O)[O-])s1 [Compound 20]"
measured_value = 499.22

[[record]]
compound = "O=C(NN=C(CBr)c1ccc(Br)cc1)Nc1ncc([N+](=O)[O-])s1 [Compound 9]"
measured_value = 1003.19

[[record]]
compound = "O=C(NN=Cc1cccc(Cl)c1Cl)Nc1ncc([N+](=O)[O-])s1 [Compound 12]"
measured_value = 395.79


Now consider a different compound.
Returns the measured SI (selectivity index for MAO-B) for the input compound. Input: CC(=NNC(=O)Nc1ncc([N+](=O)[O-])s1)c1ccc(Br)cc1 [Compound 4]
331.08
